biological target: BACE1 (Homo sapiens, UniProt P56817); experiment: In Vitro Enzymatic BACE FRET (Fluorescence Resonance Energy Transfer) Assay; assay type: biochemical; conditions: read-out: BACE1 FRET assay
Sequence (P56817 46-501, species assumed): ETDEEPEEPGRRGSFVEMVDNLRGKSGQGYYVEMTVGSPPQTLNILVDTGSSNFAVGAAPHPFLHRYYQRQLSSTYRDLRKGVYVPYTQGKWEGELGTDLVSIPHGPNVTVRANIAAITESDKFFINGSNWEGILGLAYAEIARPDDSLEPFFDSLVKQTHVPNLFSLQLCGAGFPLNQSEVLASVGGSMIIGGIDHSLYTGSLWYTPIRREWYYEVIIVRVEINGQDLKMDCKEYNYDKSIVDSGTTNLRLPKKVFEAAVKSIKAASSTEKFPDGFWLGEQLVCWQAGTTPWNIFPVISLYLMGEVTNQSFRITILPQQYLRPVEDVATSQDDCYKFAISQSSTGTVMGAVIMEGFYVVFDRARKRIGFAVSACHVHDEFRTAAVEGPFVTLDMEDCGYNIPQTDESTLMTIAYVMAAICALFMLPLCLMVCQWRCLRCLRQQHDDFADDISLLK
value-kind: IC50

In: What value of IC50 has been recorded for this entry: CC(C)(C)OC(=O)n1cccc1-c1ccc2c(c1)[C@@]1(COC(N)=N1)c1cccc(F)c1O2
Out: 1000 to 5000 nM

In: Also Cc1noc(C)c1-c1ccc2c(c1)[C@]1(COC(N)=N1)c1cc(-c3cccnc3)ccc1O2 , if possible.
Out: 100 to 1000 nM

In: Continue with COC(C)(C)C#Cc1cnc2c(c1)[C@@]1(COC(N)=N1)c1cc(-c3ccnnc3)ccc1O2
Out: 1000 to 5000 nM

Others:
In: # input compound: CC(C)(O)C#Cc1cnc2c(c1)[C@@]1(COC(N)=N1)c1cc(-c3ccccc3)ccc1O2 ; wanted: its IC50
Out: 1000 to 5000 nM

In: Now give it for NC1=N[C@]2(CO1)c1cc(C#CC3(O)CCC3)ccc1Oc1ccc(-c3cncnc3)cc12 too.
Out: < 100 nM

In: And what about the compound CC(C)Cn1cc(-c2ccc3c(c2)[C@]2(COC(N)=N2)c2cc(-c4cccnc4)ccc2O3)cn1 ?
Out: < 100 nM

In: # repeat for NC1=N[C@@]2(CO1)c1cc(-c3ccccc3)ccc1Oc1ncc(N3C[C@@H]4C[C@H]3CO4)cc12
Out: < 100 nM
